# assay: in vivo
# Design: species or system mice
# measurement-setup: mouse, sc, 0.5 mg/kg
Numbered stars: 1 amine (or outer) side, 2 acyl side, 3 side chain; on linkers, the order of the positions; unused ones are H or OH. Square brackets hold non-standard residues; d marks the D form. Peptide text beside a SMILES is read from it. * marks the point of attachment. X1 = O=C(O)CCCCCCCCCCCCCCCCC(=O)N[C@@H](CCC(=O)NCCCNCCCCNCCCN*)C(=O)O; NMeL = CN[C@@H](CC(C)C)C(=O)O; Suc = O=C(CCC(=O)[*:2])[*:1]; Nle = CCCC[C@H](N)C(=O)O
measured-quantity: level at time molar at 2 h
Write down the value, and be sure its unit follows.

[in] For the compound shown here, CCCC[C@H](NC(=O)[C@H](CC(C)C)N(C)C(=O)CNC(=O)[C@@H](NC(=O)[C@H](Cc1ccc(O)cc1)NC(=O)[C@H](CCCCN)NC(=O)[C@H](CC(=O)O)NC(=O)CCC(=O)NCCCNCCCCNCCCNC(=O)CC[C@H](NC(=O)CCCCCCCCCCCCCCCCC(=O)O)C(=O)O)C(C)C)C(N)=O [compound 318, *Asp;Lys;Tyr;Val;Gly;NmLeu;Nle;NH2] ({X1-Suc}-DKYVG[NMeL][Nle]-NH2) , give the reported level at time molar at 2 h.
[out] 237 nM
